- Assay Target: human lung fibroblast collagenase (Homo sapiens, UniProt P03956)
- Construct: purified from culture supernatants from the human lung fibroblast cell line, WI-38; endogenous in cells
- Sequence (P03956 100-469): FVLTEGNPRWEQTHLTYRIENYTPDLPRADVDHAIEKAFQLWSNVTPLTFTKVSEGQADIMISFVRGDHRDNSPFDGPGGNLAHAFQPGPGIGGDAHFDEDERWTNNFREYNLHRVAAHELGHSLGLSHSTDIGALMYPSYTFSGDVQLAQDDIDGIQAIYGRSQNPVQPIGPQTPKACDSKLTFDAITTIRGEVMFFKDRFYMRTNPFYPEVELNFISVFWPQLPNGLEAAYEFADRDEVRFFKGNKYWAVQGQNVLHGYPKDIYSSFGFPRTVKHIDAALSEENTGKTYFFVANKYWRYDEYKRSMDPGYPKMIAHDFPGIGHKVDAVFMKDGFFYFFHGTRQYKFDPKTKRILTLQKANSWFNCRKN
- Experiment Summary: Collagenase inhibitor assay (degradation of 3H-acetylated rat skin type I collagen)
- Condition: collagenase purified from WI-38 culture supernatants; 3H-acetylated rat skin type I collagen substrate; 5 min pre-incubation, 37° C. overnight; β-mercaptoethanol may be incorporated; read-out: IC50 (50% inhibitory concentration), inhibition of human lung fibroblast collagenase
Property Name: IC50 (nM)
Write it as a number; the unit nM goes unstated.

[Q] Could you tell me which IC50 is on file for COC(=O)CC(S)C(CC(C)C)C(=O)NC1CCCCCCCCCCNC1=O (single isomer, unassigned) ?
[A] 2.7

[Q] # get_value(readout='IC50', item= CC(C)CC(C(=O)NC1CCCCCCCCCCNC1=O)C(S)CC(=O)OC(C)C (stereo not drawn) )
[A] 15

[Q] Please give the measured IC50 for this compound: CC(C)CC(C(=O)NC1CCCCCCCCCCNC1=O)C(S)CC(=O)O (single isomer, unassigned)
[A] 74.5

FYI, the data here is from patent US5190937A.
